System: HCC-2998 colon
assay-info: NCI-60 one-dose screen, 48 h (100 = growth as untreated, 0 = no growth, -100 = all killed)
settings: 10 µM unless noted
About 83,000 compounds went through this panel and 20% of them were active in at least one assay; those are over-represented in the sample as a whole.
The threshold is inclusive: growth of exactly 70% counts as yes; values below receive no.

**Q:** For this compound, is measured growth 70% or higher? COc1ccc(F)cc1/C=C/C(=O)/C=C(/C=C/c1cc(F)ccc1OC)OB(F)F
**A:** yes

Continuing:
**Q:** Dear colleague, could you confirm whether CCC(C)(C)C(=O)O[C@H]1C[C@@H](C)C=C2C=C[C@H](C)[C@H](CC[C@@H]3CC(SCCN)CC(=O)O3)[C@H]21 (stereo not given in full) has growth at or above 70%?
**A:** yes

**Q:** Please indicate if the recorded growth for COC(=O)c1c(C)nc(C)c2c1C(=O)C(Br)=C(NCc1ccccc1)C2=O meets or exceeds 70%.
**A:** no

**Q:** Tell me whether growth is at least 70% here: CNC(=O)c1[nH]cc(-c2ccc(OC)cc2)c1-c1cc(OC)c2c(c1OC)OCO2
**A:** yes

**Q:** I'd appreciate it if you could say whether O=C(O)c1cn(C2CC2)c2cc(N3CCN(C(=O)N(c4ccccc4)c4nc(-c5ccccc5)cs4)CC3)c(F)cc2c1=O has growth at least equal to 70%.
**A:** no

**Q:** Is growth for Nc1c(C(=O)Nc2ccccc2F)sc2nc3c(cc12)CCCC3 at or above 70%?
**A:** no

**Q:** Could you verify whether the entry O=C1C(=O)N(Cc2ccc(-c3ccccc3)cc2)c2ccc(OC(F)(F)F)cc21 shows growth of no less than 70%?
**A:** no

---

Test system: NCI-H23 lung
assay-info: NCI-60 one-dose screen, 48 h (100 = growth as untreated, 0 = no growth, -100 = all killed)
settings: 10 µM unless noted
This is part of a sample that, as a whole, favours compounds with a hit. Of some 83,000 tested, about 20% had one in any assay.
Binary call on growth: condition met from 80% upward, condition not met beneath that.

Answered cases to consult:
**Q:** Record CCOC(=O)C1=C(N)Oc2c(sc3c(F)cccc23)C1c1ccc(O)cc1 (centres undefined) ; criterion: growth no lower than 80%. Met?
**A:** condition not met

**Q:** Evaluate CCCc1c(OC(=O)c2ccccc2)nc2[nH]c(=O)sc2c1C : growth at minimum 80%?
**A:** condition met

**Q:** Check the entry O=C(Nc1cccc2ccccc12)NC1CC1 : does growth equal or exceed 80%?
**A:** condition met

Continuing:
**Q:** # bool: growth of N#Cc1ccc(O)c(C2=NCC(c3cccc(Oc4ccccc4)c3)O2)c1 (centres undefined) >= 80%
**A:** condition not met

**Q:** # bool: growth of C=C1C(=O)O[C@H]2[C@H]1CC/C(COC(=O)C(=O)c1cn(C)c3ccc(Cl)cc13)=C\CC[C@@]1(C)O[C@@H]21 >= 80%
**A:** condition not met

**Q:** Please indicate if the recorded growth for O=C(CN1CCOCC1)Nc1nc(-c2cc3ccccc3oc2=O)cs1 meets or exceeds 80%.
**A:** condition met

**Q:** Is growth for O=C1Nc2ccccc2/C1=C/c1cccn1CCCCn1c2ccccc2c(=O)c2ccccc21 at or above 80%?
**A:** condition not met

**Q:** Does the reported growth for O=C(Nn1c2c(sc1=NC1CC1)C(=O)c1ccccc1C2=O)c1cc2ccc1CCc1ccc(cc1)CC2 fall at or above the 80% mark?
**A:** condition not met

---

System: HCT-15 colon
assay-info: NCI-60 one-dose screen, 48 h (100 = growth as untreated, 0 = no growth, -100 = all killed)
settings: 10 µM unless noted
This is part of a sample that, as a whole, favours compounds with a hit. Of some 83,000 tested, about 20% had one in any assay.
Label yes when growth is at or above 90%; otherwise label no.

Check out these entries, answers already filled in.
**Q:** Identify whether the reported growth of the following molecule is 90% or greater: O=C(CN1C(=O)S/C(=C\C(Cl)=C\c2ccccc2)C1=O)NCCc1ccc(O)cc1
**A:** no

**Q:** Does growth meet or surpass 90% for Cc1cc(N2CCN(CCNc3ccnc4cc(Cl)ccc34)CC2)nc(N2CCOCC2)n1 ?
**A:** no

**Q:** In plain terms: is recorded growth at least 90% for Clc1cc(Cl)c(Cl)c(-c2nnc(SCc3ccncc3Br)o2)c1 ?
**A:** yes

New cases:
**Q:** Does growth meet or surpass 90% for Fc1ccc(CNc2c3ccccc3nc3ccccc23)c(F)c1 ?
**A:** no

**Q:** Check this molecule for growth at or above 90%: CCOC(=O)Cc1cnc(N/N=C(\C)c2cc3ccccc3o2)s1
**A:** yes

**Q:** Tell me whether growth is at least 90% here: Nc1c(C(=O)Nc2ccccc2F)sc2nc3c(cc12)CCCC3
**A:** no

**Q:** Quick check, growth >= 90%? Cc1ccc2c(c1)=C/C(=C\c1cc(-c3ccccc3)oc1O)C(=O)N=2
**A:** yes

**Q:** For this molecule, is measured growth 90% or higher? C#CCOc1cccc(Nc2ncnc3ccc(NC(=O)C=C)cc23)c1
**A:** no

---

Tested on: HOP-92 NSCLC
assay-info: NCI-60 one-dose screen, 48 h (100 = growth as untreated, 0 = no growth, -100 = all killed)
settings: 10 µM unless noted
Procedure: Growth inhibition of the HOP-92 human Non-Small Cell Lung tumor cell line is measured as a screen for anti-cancer activity. Cells are grown in 96 well plates and exposed to the test compound for 48 hours. Compounds are tested at a single concentration, which is 10^-5 M for most compounds. The reported endpoint is percent growth (GI% or GIPRCNT), where numbers from 0 - 100% represent growth inhibition, and numbers from -100% - 0 represent cell death. […]
Compounds without any hit were thinned out: in the full panel of roughly 83,000, 20% have a hit.
Please note: label 1 applies when growth is 90% or greater, and label 0 applies otherwise.

Observe how each entry below is paired with its result.
**Q:** Identify whether the reported growth of the following compound is 90% or greater: CSc1nc2ccccc2cc1/C=[N+](\[O-])c1ccccc1
**A:** label 0

**Q:** Could you tell me if the measured growth of CCn1cc(C(=O)O)c(=O)c2cc(F)c(N3CCN(CC(=O)Nc4ccc(S(=O)(=O)Nc5nccc(C)n5)cc4)C(C)C3)c(F)c21 (configuration not stated) reaches 90% or more?
**A:** label 1

**Q:** Could you tell me if the measured growth of CCCCCCCCCCCCCCCCCCOc1ccccc1CC(=O)OCC[N+](C)(C)C reaches 90% or more?
**A:** label 0

**Q:** Exam item: decide whether the reported growth for Nc1nc2ccc(-c3nc4ccc5[nH]ncc5c4c4c3CCCC4)cc2s1 is at least 90%.
**A:** label 1

**Q:** Tell me whether growth is at least 90% here: CCOC(=O)c1cc2c(n1Cc1cc(OC)c(OC)c(OC)c1)-c1nc(N)sc1CCC2
**A:** label 0

**Q:** Can COc1ccc(F)cc1/C=C/C(=O)/C=C(/C=C/c1cc(F)ccc1OC)OB(F)F be said to have growth at or above 90%?
**A:** label 0

Next:
**Q:** Could you tell me if the measured growth of O=C(NCc1ccc(Cl)cc1Cl)C1CCC(=O)N1c1cccs1 (configuration not stated) reaches 90% or more?
**A:** label 1

**Q:** Hi team, for O=C1C(=O)N(Cc2ccc(-c3ccccc3)cc2)c2ccc(OC(F)(F)F)cc21 , is the recorded growth at or above 90%?
**A:** label 0

**Q:** Say whether Cn1ccc(=O)c(C(=O)Nc2nsc3ccc([N+](=O)[O-])cc23)c1 shows growth of 90% or more.
**A:** label 0

**Q:** # bool: growth of O=C(Nc1cccc(Cl)c1)Nc1cccc(Cn2c(=O)[nH]c3ccc(Oc4ncccn4)cc3c2=O)c1 >= 90%
**A:** label 0

**Q:** Form field: growth at least 90%? Entry: CC1OC(n2c3ccccc3c3c4c(c5c6ccccc6[nH]c5c32)C(=O)N(CCN2CCCC2)C4=O)CC(O)C1O (configuration not stated)
**A:** label 0

---

System: RPMI-8226 leukemia
assay-info: NCI-60 one-dose screen, 48 h (100 = growth as untreated, 0 = no growth, -100 = all killed)
settings: 10 µM unless noted
Method: Growth inhibition of the RPMI-8226 human tumor cell line is measured as a screen for anti-cancer activity. Cells are grown in 96 well plates and exposed to the test compound for 48 hours. Compounds are tested at a single concentration, which is 10^-5 M for most compounds. The reported endpoint is percent growth (GI% or GIPRCNT), where numbers from 0 - 100% represent growth inhibition, and numbers from -100% - 0 represent cell death. For example, a value of 40 represents 60% growth inhibition. […]
The panel holds about 83,000 compounds, 20% with a hit somewhere; the sample as a whole holds those more often.
experimental-endpoint: growth (%)
Write it as a number; the unit % goes unstated.

Check out these entries, answers already filled in.
**Q:** Name the recorded growth of the molecule listed here: COc1ccc(OC)c(Nc2nnc(-c3ccc(O)c(OC)c3)o2)c1
**A:** 75

**Q:** Look up growth of Fc1cccc(Oc2ccc(Nc3ncnc4ccc(OCCCN5CCOCC5)cc34)cc2Cl)c1 and report it.
**A:** 38.5

**Q:** Give the measured growth for N#Cc1c(-c2ccc(Cl)cc2)nc(NN2C(=O)c3ccccc3C2=O)nc1N1CCOCC1
**A:** 105

**Q:** Complete the entry with growth for CC(=O)O[C@H]1CC2CCC3C(CC[C@@]4(C)C3C[C@H]([N+]3(C)CCCCC3)[C@@H]4OC(C)=O)[C@@]2(C)C[C@@H]1N1CCCCC1 (some centres undefined)
**A:** 110

**Q:** Quickly give me recorded growth for COC(=O)c1c(C)c2n(c1C)C(=O)C(c1ccccc1)=C2
**A:** 88.5

# input for lookup
**Q:** Give the value of growth reported for the following: N=C(N)c1ccc(-c2ccc(-c3ccc(Cl)c(Cl)c3)s2)nc1
**A:** -8.11
